Provide the recorded Activity for the entries that follow.
species: Mus musculus; test: Hepatoprotective activity against D-GaIN/LPS induced liver injury mouse model assessed as increase in sAST relative to control; assay type: functional
Expressed in %, but write only the number.

Task item: Any idea what Activity was measured for CC(C)=CCC[C@](C)(O)C1CC[C@]2(C)[C@@H]1[C@H](O[C@H]1O[C@@H](CO[C@@H]3O[C@@H](CO)[C@H](O)[C@H]3O)[C@H](O)[C@@H](O)[C@@H]1O)C[C@@H]1[C@@]3(C)CC[C@H](O[C@@H]4O[C@H](CO)[C@@H](O)[C@H](O)[C@H]4O[C@@H]4O[C@H](CO)[C@@H](O)[C@H](O)[C@H]4O)C[C@@H]3CC[C@]12C (some centres undefined) ?
Reply: 87

Task item: Requested read-out: Activity. Entry: CC(C)=CCC[C@](C)(O[C@@H]1O[C@H](CO)[C@@H](O)[C@H](O)[C@H]1O)[C@H]1CC[C@]2(C)[C@@H]1[C@H](O)C[C@@H]1[C@@]3(C)CC[C@H](O)C(C)(C)[C@@H]3[C@@H](O[C@@H]3O[C@H](CO)[C@@H](O)[C@H](O)[C@H]3O)C[C@]12C [GINSENOSIDE RG1]
Reply: 12

Task item: Entry under review: CC(C)=CCC[C@](C)(O)[C@H]1CC[C@]2(C)[C@@H]1[C@H](O)C[C@@H]1[C@@]3(C)CC[C@H](O)C(C)(C)[C@@H]3[C@@H](O[C@@H]3O[C@H](CO)[C@@H](O)[C@H](O)[C@H]3O)C[C@]12C [GINSENOSIDE RH1] . Reported Activity?
Reply: 90

Task item: # query: Activity of entry CC(C)=CCC[C@](C)(O)C1CC[C@]2(C)[C@@H]1[C@H](O[C@H]1O[C@@H](CO[C@H]3OC[C@H](O)[C@@H](O)[C@@H]3O)[C@H](O)[C@@H](O)[C@@H]1O)C[C@@H]1[C@@]3(C)CC[C@H](O[C@@H]4O[C@H](CO)[C@@H](O)[C@H](O)[C@H]4O[C@@H]4O[C@H](CO)[C@@H](O)[C@H](O)[C@H]4O)C[C@@H]3CC[C@]12C (some centres undefined)
Reply: 40

Origin of the recorded values: ChEMBL document CHEMBL5260832
